Experiment: Volume of distribution at steady state in non-human primates at 1 mg/kg, iv
Assay type: ADME, organism-based
Conditions: in vivo, read-out: Vdss
Reported Endpoint: Vd (L/kg)
Express it in L/kg; write the number only.

**Q:** # lookup: Vd of `COCCO[C@H]1CC[C@H](NC(=O)c2cc(-c3cncs3)nc3[nH]ccc23)CC1`
**A:** 0.9

----------
Assay: Half life in non-human primates at 1 mg/kg, po
Type: ADME, organism-based
Conditions: in vivo
Reported Endpoint: half-life (h)
Express it in h; write the number only.

**Q:** # lookup: half-life of `COCCO[C@H]1CC[C@H](NC(=O)c2cc(-c3cncs3)nc3[nH]ccc23)CC1`
**A:** 3

----------
Assay: Half life in non-human primates at 1 mg/kg, iv
Format: ADME, organism-based
Conditions: in vivo
Reported Endpoint: half-life (h)
Express it in h; write the number only.

**Q:** # lookup: half-life of `COCCO[C@H]1CC[C@H](NC(=O)c2cc(-c3cncs3)nc3[nH]ccc23)CC1`
**A:** 3.1

----------
Test: Kinetic aqueous solubility of the compound
Format: physicochemical
Conditions: buffer; read-out: Kinetic_solubility
Reported Endpoint: solubility kinetic
I'd appreciate it if you included the unit after the number.

**Q:** # lookup: solubility kinetic of `COCCO[C@H]1CC[C@H](NC(=O)c2cc(-c3cncs3)nc3[nH]ccc23)CC1`
**A:** 25 µM

----------
Experiment: AUC in Sprague-Dawley rat at 1 mg/kg, iv
Assay type: ADME, organism-based
Design: dose 1 mg/kg, route iv
Details: in vivo
Reported Endpoint: AUC (ng·h/mL)
Express it in ng·h/mL; write the number only.

**Q:** # lookup: AUC of `COCCO[C@H]1CC[C@H](NC(=O)c2cc(-c3cncs3)nc3[nH]ccc23)CC1`
**A:** 4810

----------
Assay: Plasma protein binding in mouse
Assay type: ADME, cell-free
Conditions: read-out: PPB (converted)
Reported Endpoint: fraction unbound
# respond with the number and nothing more

**Q:** # lookup: fraction unbound of `COCCO[C@H]1CC[C@H](NC(=O)c2cc(-c3cncs3)nc3[nH]ccc23)CC1`
**A:** 0.206
